target: CRF1 receptor (Homo sapiens); construct: Cell membranes are prepared according the method of Dieterich and DeSouza (1996); endogenous in cells; test: CRF1 Receptor Binding Assay (competition binding, IMR-32 cell membranes); settings: CRF1 affinity; [125I]Tyr0-ovine CRF, human IMR-32 neuroblastoma cell membranes
Sequence (P34998 24-415): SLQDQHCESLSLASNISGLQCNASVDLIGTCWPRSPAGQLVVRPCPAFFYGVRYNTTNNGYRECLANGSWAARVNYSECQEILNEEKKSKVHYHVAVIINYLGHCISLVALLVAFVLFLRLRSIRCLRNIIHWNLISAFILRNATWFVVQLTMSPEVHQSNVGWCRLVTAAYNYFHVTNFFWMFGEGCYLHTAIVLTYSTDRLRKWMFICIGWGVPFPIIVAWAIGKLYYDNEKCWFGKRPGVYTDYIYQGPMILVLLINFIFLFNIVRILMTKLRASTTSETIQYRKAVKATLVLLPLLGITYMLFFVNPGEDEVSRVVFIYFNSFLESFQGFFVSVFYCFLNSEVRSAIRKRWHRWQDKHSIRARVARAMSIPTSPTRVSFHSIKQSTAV
Result Type: IC50 (µM)

Problem: Any idea what IC50 was measured for COCCN(CCOC)c1nc(C)nc2c1CCCC2(C)c1ccc(Cl)cc1 (centres unmarked) [Compound 6] ?
Solution: 11.7

Problem: Any idea what IC50 was measured for CCCN(CC1CC1)c1nc(C)nc2c1CCC2c1ccc(C)cc1C (centres unmarked) [Compound 9] ?
Solution: 1.12

Problem: Any idea what IC50 was measured for CCCN(CC1CC1)c1nc(C)nc2c1CCC[C@@]2(C)c1ccccc1 [Compound 2] ?
Solution: 0.525

[P] COCCN(CCOC)c1nc(C)nc2c1CCCC2c1ccc(Cl)cc1 (centres unmarked) [Compound 5]
[Q] CCCN(CC1CC1)c1nc(C)nc2c1CCCC2(C)c1ccc(Cl)cc1 (centres unmarked) [Compound 4]
Problem: Could you please tell me which of these two has the higher IC50: P or Q ? Refer to your chosen item by its label in the answer.
Solution: P
(P: 28.8 µM, Q: 1.74 µM)

[1] CCCN(CC1CC1)c1nc(C)nc2c1CCCC2c1ccccc1 (centres unmarked) [Compound 1]
[2] CCCN(CC1CC1)c1nc(C)nc2c1CCC2(C)c1ccc(C)cc1C (centres unmarked) [Compound 10]
Problem: Could you please tell me which of these two has the higher IC50: 1 or 2 ? Refer to your chosen item by its label in the answer.
Solution: 1

The reported measurements were obtained from patent US7223767B2.
